- System: biotinyl-Val-oxazolone
- assay: self-aminoacylation, catalytic enhancement (BVO) (fold over background); higher = more active; k-Seq, kA / k0A0; sequences stand for … in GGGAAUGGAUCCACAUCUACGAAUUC…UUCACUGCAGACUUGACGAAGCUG
Variants at the floor of the assay were thinned out.
So I've got a bunch of sequences here, and I need their self-aminoacylation values.
Output spec: single numeric token, no unit.

Please fill in: self-aminoacylation reported for AUAACCCUGGUCACCGAGUGA [Fam2.1 aminoacylation ribozyme variant] = 4.06

The recorded self-aminoacylation for AAGUUUGUUAAUAGUCGCAAU [Fam3.1 aminoacylation ribozyme variant] is 1.45

Please fill in: self-aminoacylation reported for AUUAACAUGGUCAUCGAGUGA [Fam2.1 aminoacylation ribozyme variant] = 3.23

Lab note: AAGUUUGCUAAUGGUAGCAAG [Fam3.1 aminoacylation ribozyme variant] gave self-aminoacylation of 0.994

self-aminoacylation reported for this sequence AAGUUGGCUAAUCGUCGCAAG [Fam3.1 aminoacylation ribozyme variant] : 1.51

// sample CAACUUCAAGCAAUCGGUCUG [Fam1A.1 aminoacylation ribozyme variant] , its self-aminoacylation was 1.39

// AGUACCCUGGUCUUCGAGUGA [Fam2.1 aminoacylation ribozyme variant] : self-aminoacylation value = 3.27

Lab note: AAGGUUGCUAACAGUCGCAAG [Fam3.1 aminoacylation ribozyme variant] gave self-aminoacylation of 1.11

Quick note, self-aminoacylation for GUUCACCUACGUCAUCGGGUG [Fam2.2 aminoacylation ribozyme variant] landed at 3.69

Record summary for CUACUUGGAACAAUCGGUCUG [Fam1A.1 aminoacylation ribozyme variant] : reported self-aminoacylation = 0.833

GET /value?item= CCACACCUCAAGCAAUCGAUC [Fam1B.1 aminoacylation ribozyme variant] &field=self-aminoacylation returns 0.76

Value of measured self-aminoacylation for the entry AUUCACCUAGGUCUUCUGGUG [Fam2.2 aminoacylation ribozyme variant] : 3.86

// sample CGACACUUCGAGCAAUCGGUC [Fam1B.1 aminoacylation ribozyme variant] , its self-aminoacylation was 1.4

Noted for AUUCAACUAGGUCAUCGGGUA [Fam2.2 aminoacylation ribozyme variant] : its self-aminoacylation reads 2.19
